- assay overview: Antiproliferative activity against mouse +SA cells by MTT assay
- Type: functional, cell-based
- test conditions: +SA cell
measure: pIC50
Give bare numbers, as −log10 of the molar value.

A selection of reference data follows.
input: Quick check: pIC50 of `COc1ccc(CCN2COc3c(C)c(C)c4c(c3C2)CC[C@@](C)(CC/C=C(\C)CC/C=C(\C)CCC=C(C)C)O4)cc1OC` ?
output: 5.74

input: Please give the result for `CC(C)=CCC/C(C)=C/CC/C(C)=C/CC[C@]1(C)CCc2c3c(c(C)c(C)c2O1)OCN(CCc1ccc(O)cc1)C3` too.
output: 5.82

input: Also `CC(C)=CCC/C(C)=C/CC/C(C)=C/CC[C@]1(C)CCc2c3c(c(C)c(C)c2O1)OCN(CCCCC(=O)O)C3` , if possible.
output: 5.74

input: Consider next the compound `CC(C)=CCC/C(C)=C/CC/C(C)=C/CC[C@]1(C)CCc2cc(O)c(CO)c(C)c2O1` in the same way.
output: 5.18

input: Would you kindly repeat that for `C=CCN1COc2c(C)c(C)c3c(c2C1)CC[C@@](C)(CC/C=C(\C)CC/C=C(\C)CCC=C(C)C)O3` ?
output: 4.94

Hello, I would appreciate it if you could give pIC50 for each entry below.
1. CC(C)=CCC/C(C)=C/CC/C(C)=C/CC[C@]1(C)CCc2c3c(cc(C)c2O1)OCN(CCCCCCO)C3
2. CC(C)=CCC/C(C)=C/CC/C(C)=C/CC[C@]1(C)CCc2c3c(cc(C)c2O1)OCN(C)C3
3. CC(C)=CCC/C(C)=C/CC/C(C)=C/CC[C@]1(C)CCc2c3c(c(C)c(C)c2O1)OCN(C)C3

output:
1. 5.89
2. 5.89
3. 5.66
